biological target: B-RAF^V600E (Homo sapiens (Human), UniProt P15056, V600E); test: RAF kinase activity, Kinase Profiling Service (Invitrogen); assay type: biochemical; conditions: B-RAF V600E mutant; read-out: B-RAFv^600E (IC50)
Sequence (P15056 whole entry V600E): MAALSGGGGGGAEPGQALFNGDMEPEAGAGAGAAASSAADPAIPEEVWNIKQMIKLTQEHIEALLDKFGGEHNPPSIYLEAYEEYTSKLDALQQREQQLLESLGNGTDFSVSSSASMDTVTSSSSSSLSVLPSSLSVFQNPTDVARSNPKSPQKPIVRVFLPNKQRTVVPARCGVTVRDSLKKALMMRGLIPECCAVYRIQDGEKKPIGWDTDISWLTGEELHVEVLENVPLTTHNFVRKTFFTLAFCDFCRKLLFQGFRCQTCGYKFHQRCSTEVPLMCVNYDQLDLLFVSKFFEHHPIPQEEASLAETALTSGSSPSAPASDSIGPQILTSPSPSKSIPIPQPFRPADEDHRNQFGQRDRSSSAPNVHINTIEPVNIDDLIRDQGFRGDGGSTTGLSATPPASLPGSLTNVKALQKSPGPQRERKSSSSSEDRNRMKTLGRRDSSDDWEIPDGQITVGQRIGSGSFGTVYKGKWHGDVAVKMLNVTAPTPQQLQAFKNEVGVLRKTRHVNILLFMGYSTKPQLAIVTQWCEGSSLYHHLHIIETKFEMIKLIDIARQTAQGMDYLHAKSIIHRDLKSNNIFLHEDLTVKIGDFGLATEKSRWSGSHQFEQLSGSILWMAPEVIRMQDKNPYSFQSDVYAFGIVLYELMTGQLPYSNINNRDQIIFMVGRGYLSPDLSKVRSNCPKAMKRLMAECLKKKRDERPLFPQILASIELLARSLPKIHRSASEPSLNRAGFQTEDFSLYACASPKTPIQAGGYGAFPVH
Property: pIC50; scope: individual molecules
By convention, pIC50 is the negative base-10 log of a molar concentration.

Here are 6 molecules together with their reported answers.
- Cc1ccc2c(Nc3ccc(Cl)c(CN(C)C)c3)nccc2c1NC(=O)c1csc2c(N)ncnc12: 8.15
- CC(=O)c1ccc(Nc2nccc3c(NC(=O)c4csc5c(N)ncnc45)c(C)ccc23)cc1: 8.30
- Cc1ccc2c(Nc3ccc(F)c(Cl)c3)nccc2c1NC(=O)c1csc2c(N)ncnc12: 7.51
- Cc1ccc2c(Nc3ccc(OC(F)F)cc3)nccc2c1NC(=O)c1csc2c(N)ncnc12: 7.59
- Cc1ccc2c(Nc3cccc(Cl)c3F)nccc2c1NC(=O)c1csc2c(N)ncnc12: 8.15
- COc1ccc(Nc2nccc3c(NC(=O)c4csc5c(N)ncnc45)c(C)ccc23)cc1: 7.49

Please find the next molecule below.
**Query** Param item = Cc1ccc2c(Nc3ccc(Cl)cc3)nccc2c1NC(=O)c1csc2c(N)ncnc12 ; retrieve measured pIC50.
**Result** 7.66

Taken from patent US9156852B2.
